Sourced from ChEMBL document CHEMBL4390675

target: D(4) dopamine receptor (Homo sapiens, UniProt P21917); assay: Antagonist activity at human D4 receptor expressed in CHOK1 cells assessed as inhibition of dopamine-induced beta-arrestin recruitment measured after 90 mins by luminescence assay; assay type: cell-based; settings: read-out: IC50
Each record gets a class by IC50: lowest: < 0.4 µM; middle: ≥ 0.4 µM and < 4 µM; highest: ≥ 4 µM

- SMILES INPUT: "O=C(CN1CCN(c2ccc(Cl)cn2)CC1)Nc1cncnc1"
  CATEGORY: "highest"
- SMILES INPUT: "Cc1cccc(NC(=O)CCN2CCC(c3ccccn3)CC2)c1"
  CATEGORY: "middle"
- SMILES INPUT: "O=C(CN1CCN(c2ccccn2)CC1)Nc1cccnc1"
  CATEGORY: "highest"

Now examine the next entry.
// bin(item) where item = `Cc1cccc(NC(=O)CN2CCN(c3ncccn3)CC2)c1`
lowest

====

molecular target: D(1B) dopamine receptor (Homo sapiens) (UniProt P21918); experiment: Antagonist activity at D5 receptor (unknown origin) stably expressed in CHOK1 cells assessed as inhibition of dopamine-induced beta-arrestin recruitment measured after 90 mins by luminescence assay; type: cell-based
Sequence (P21918 whole entry): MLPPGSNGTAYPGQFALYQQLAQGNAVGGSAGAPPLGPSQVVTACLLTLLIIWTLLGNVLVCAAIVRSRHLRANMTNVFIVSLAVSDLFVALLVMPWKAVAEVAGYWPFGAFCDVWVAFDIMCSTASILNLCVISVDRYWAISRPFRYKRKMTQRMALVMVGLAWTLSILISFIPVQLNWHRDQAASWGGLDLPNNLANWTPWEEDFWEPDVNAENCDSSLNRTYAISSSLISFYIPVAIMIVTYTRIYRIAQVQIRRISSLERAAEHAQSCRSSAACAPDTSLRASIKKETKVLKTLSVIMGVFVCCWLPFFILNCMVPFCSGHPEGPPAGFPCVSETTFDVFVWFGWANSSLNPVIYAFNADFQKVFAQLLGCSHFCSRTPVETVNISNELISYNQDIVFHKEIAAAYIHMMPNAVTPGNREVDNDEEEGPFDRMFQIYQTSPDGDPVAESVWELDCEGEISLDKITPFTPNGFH
The source made the active and inactive calls. The calls are words filed in the database; no cut-off is given here.
READOUT TYPE: inhibition

Illustrative cases are given below, each with its answer.
- SMILES INPUT: "Cc1cccc(NC(=O)CN2CCN(c3ncccn3)CC2)c1"
  TARGET UNDER TEST: "D(1B) dopamine receptor (Homo sapiens) (UniProt P21918)"
  inhibition: "inactive"
- SMILES INPUT: "Cc1cccc(NC(=O)CCN2CCN(c3ncccn3)CC2)c1"
  TARGET UNDER TEST: "D(1B) dopamine receptor (Homo sapiens) (UniProt P21918)"
  inhibition: "inactive"
- SMILES INPUT: "Cc1cccc(NC(=O)CN2CCC(c3ccccc3)CC2)c1"
  TARGET UNDER TEST: "D(1B) dopamine receptor (Homo sapiens) (UniProt P21918)"
  inhibition: "inactive"
- SMILES INPUT: "Cc1cccc(NC(=O)CCN2CCC(c3ccccn3)CC2)c1"
  TARGET UNDER TEST: "D(1B) dopamine receptor (Homo sapiens) (UniProt P21918)"
  inhibition: "inactive"
- SMILES INPUT: "Cc1cccc(NC(=O)CN2CCC(c3ccccn3)CC2)c1"
  TARGET UNDER TEST: "D(1B) dopamine receptor (Homo sapiens) (UniProt P21918)"
  inhibition: "inactive"

Consider the compound shown here: `Cc1cccc(NC(=O)CCN2CCN(c3ccccn3)CC2)c1` What is its recorded inhibition?
inactive

Could you tell me which inhibition is on file for `Cc1cccc(NC(=O)CN2CCN(c3ccccn3)CC2)c1` ?
inactive

====

molecular target: D(2) dopamine receptor (Homo sapiens, UniProt P14416); test: Antagonist activity at human D2L receptor expressed in CHOK1 cells assessed as suppression of dopamine-induced inhibition of forskolin-stimulated cAMP accumulation measured after 30 mins by Eu-cAMP tracer based TR-FRET assay relative to dopamine; type: cell-based; details: 0.5 h
Sequence (P14416 whole entry): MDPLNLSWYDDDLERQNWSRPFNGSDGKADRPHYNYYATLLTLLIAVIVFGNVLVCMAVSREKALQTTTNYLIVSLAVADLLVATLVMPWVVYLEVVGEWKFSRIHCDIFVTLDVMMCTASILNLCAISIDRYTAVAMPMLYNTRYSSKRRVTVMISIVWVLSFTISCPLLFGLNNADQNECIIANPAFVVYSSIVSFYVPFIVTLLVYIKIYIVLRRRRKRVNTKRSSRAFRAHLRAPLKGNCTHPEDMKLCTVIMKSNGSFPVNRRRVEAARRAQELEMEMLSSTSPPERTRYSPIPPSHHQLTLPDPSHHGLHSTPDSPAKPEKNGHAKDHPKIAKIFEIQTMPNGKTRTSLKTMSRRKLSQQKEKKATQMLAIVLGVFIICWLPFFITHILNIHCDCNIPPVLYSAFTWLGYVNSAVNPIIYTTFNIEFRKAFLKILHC
Each entry below lists one item and its recorded inhibition (INH) value.
Give the quantity in %, number only.

Reference set, count: 5
- SMILES INPUT: "Cc1ccc(C2CCN(CC(=O)Nc3cccc(C)c3)CC2)cc1"
  inhibition (INH) [%]: 100
- SMILES INPUT: "Cc1ccc(C2CCN(CC(=O)Nc3cccc(C)c3)CC2)nc1"
  inhibition (INH) [%]: 100
- SMILES INPUT: "CCc1cccc(NC(=O)CN2CCN(c3ccc(Cl)cn3)CC2)c1"
  inhibition (INH) [%]: 100
- SMILES INPUT: "O=C(CN1CCN(c2ccc(Cl)cn2)CC1)Nc1cncnc1"
  inhibition (INH) [%]: 76.2
- SMILES INPUT: "Cc1cccc(NC(=O)CN2CCN(c3cccc4ccccc34)CC2)c1"
  inhibition (INH) [%]: 100

Please look at the following compound next.
What inhibition (INH) value was documented for this compound, `O=C(CN1CCN(c2ccc(Cl)cn2)CC1)Nc1cccnc1` ?
100

====

molecular target: D(4) dopamine receptor (Homo sapiens); test: Antagonist activity at human D4 receptor expressed in CHOK1 cells assessed as suppression of dopamine-induced inhibition of forskolin-stimulated cAMP accumulation measured after 30 mins by Eu-cAMP tracer based TR-FRET assay; type: functional, cell-based
pIC50: −log10 of the molar value.
Values of pIC50 greater than or equal to 6 map to class 1; values below map to class 0.

Past entries and their recorded results:
- SMILES INPUT: "Cc1cccc(NC(=O)CN2CCN(c3ccccn3)CC2)c1"
  TARGET UNDER TEST: "D(4) dopamine receptor (Homo sapiens)"
  CATEGORY: "class 1"
- SMILES INPUT: "O=C(CN1CCN(c2ccc(Cl)cn2)CC1)Nc1cncnc1"
  TARGET UNDER TEST: "D(4) dopamine receptor (Homo sapiens)"
  CATEGORY: "class 0"

hey, is pIC50 for this one >= 6? `Cc1ccc(C2CCN(CC(=O)Nc3cccc(C)c3)CC2)nc1`
class 1

pIC50 >= 6 for `Cc1cccc(NC(=O)CN2CCC(c3ccccc3)CC2)c1` ?
class 1

Exam item: decide whether the reported pIC50 for `O=C(CN1CCN(c2ccccn2)CC1)Nc1cccnc1` is at least 6.
class 0

Evaluate `Cc1ccc(C2CCN(CC(=O)Nc3cccc(C)c3)CC2)cc1` : pIC50 at minimum 6?
class 0

====

Target: UniProt:P21917
Sequence (whole entry): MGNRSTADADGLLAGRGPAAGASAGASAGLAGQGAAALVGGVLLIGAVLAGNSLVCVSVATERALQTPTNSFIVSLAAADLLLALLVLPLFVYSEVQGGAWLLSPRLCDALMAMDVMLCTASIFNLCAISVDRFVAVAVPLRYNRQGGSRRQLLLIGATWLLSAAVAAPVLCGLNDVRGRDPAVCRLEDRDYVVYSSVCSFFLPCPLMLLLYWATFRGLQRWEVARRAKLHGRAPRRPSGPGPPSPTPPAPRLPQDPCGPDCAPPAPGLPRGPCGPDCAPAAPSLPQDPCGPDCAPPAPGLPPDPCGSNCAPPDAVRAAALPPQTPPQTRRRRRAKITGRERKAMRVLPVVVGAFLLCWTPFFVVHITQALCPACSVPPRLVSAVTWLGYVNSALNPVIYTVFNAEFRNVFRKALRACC
Experiment: Antagonist activity at human D4 receptor expressed in CHOK1 cells assessed as inhibition of dopamine-induced beta-arrestin recruitment measured after 90 mins by luminescence assay relative to control
Assay type: cell-based
Set-up: concentration or dose not given beside the values
READOUT TYPE: inhibition

Look up inhibition for this compound: `Cc1cccc(NC(=O)CN2CCN(c3cccc4ccccc34)CC2)c1`
96.7%

====

molecular target: UniProtKB P14416; assay: Antagonist activity at human D2L receptor expressed in CHOK1 cells assessed as inhibition of dopamine-induced beta-arrestin recruitment measured after 90 mins by luminescence assay relative to control; format: cell-based
READOUT TYPE: INH

- SMILES INPUT: "O=C(CN1CCN(c2ccc(Cl)cn2)CC1)Nc1cncnc1"
  INH: "Not Active"
- SMILES INPUT: "O=C(CN1CCN(c2ccc(Cl)cn2)CC1)Nc1cccnc1"
  INH: "Not Active"
- SMILES INPUT: "O=C(CN1CCN(c2ccccn2)CC1)Nc1cncnc1"
  INH: "Not Active"
- SMILES INPUT: "Cc1cccc(NC(=O)CN2CCN(c3ccc(Cl)cn3)CC2)c1"
  INH: "100%"
- SMILES INPUT: "Cc1ccc(C2CCN(CC(=O)Nc3cccc(C)c3)CC2)cc1"
  INH: "100%"

Shifting focus to the compound that follows.
Form field: reported INH of `Cc1cccc(NC(=O)CN2CCC(c3ccccc3)CC2)c1`
99.7%

====

biological target: D(4) dopamine receptor (Homo sapiens, UniProt P21917); experiment: Antagonist activity at human D4 receptor expressed in CHOK1 cells assessed as inhibition of dopamine-induced beta-arrestin recruitment measured after 90 mins by luminescence assay; format: cell-based; settings: read-out: IC50
IC50 strictly less than 3000 nM = MET. Otherwise NOT MET.

Illustrative cases are given below, each with its answer.
- SMILES INPUT: "Cc1cccc(NC(=O)CN2CCN(c3ccc(Cl)cn3)CC2)c1"
  TARGET UNDER TEST: "D(4) dopamine receptor (Homo sapiens, UniProt P21917)"
  CATEGORY: "NOT MET"
- SMILES INPUT: "O=C(CN1CCN(c2ccc(Cl)cn2)CC1)Nc1cccnc1"
  TARGET UNDER TEST: "D(4) dopamine receptor (Homo sapiens, UniProt P21917)"
  CATEGORY: "NOT MET"
- SMILES INPUT: "Cc1ccc(C2CCN(CC(=O)Nc3cccc(C)c3)CC2)nc1"
  TARGET UNDER TEST: "D(4) dopamine receptor (Homo sapiens, UniProt P21917)"
  CATEGORY: "MET"
- SMILES INPUT: "Cc1cccc(NC(=O)CN2CCC(c3ccccn3)CC2)c1"
  TARGET UNDER TEST: "D(4) dopamine receptor (Homo sapiens, UniProt P21917)"
  CATEGORY: "MET"
- SMILES INPUT: "Cc1cccc(NC(=O)CCN2CCN(c3ccccn3)CC2)c1"
  TARGET UNDER TEST: "D(4) dopamine receptor (Homo sapiens, UniProt P21917)"
  CATEGORY: "MET"
- SMILES INPUT: "Cc1cccc(NC(=O)CCN2CCN(c3ncccn3)CC2)c1"
  TARGET UNDER TEST: "D(4) dopamine receptor (Homo sapiens, UniProt P21917)"
  CATEGORY: "MET"
- SMILES INPUT: "CCc1cccc(NC(=O)CN2CCN(c3ccccn3)CC2)c1"
  TARGET UNDER TEST: "D(4) dopamine receptor (Homo sapiens, UniProt P21917)"
  CATEGORY: "MET"
- SMILES INPUT: "Cc1ccc(C2CCN(CC(=O)Nc3cccc(C)c3)CC2)cc1"
  TARGET UNDER TEST: "D(4) dopamine receptor (Homo sapiens, UniProt P21917)"
  CATEGORY: "NOT MET"
- SMILES INPUT: "CCc1cccc(NC(=O)CN2CCN(c3ccc(Cl)cn3)CC2)c1"
  TARGET UNDER TEST: "D(4) dopamine receptor (Homo sapiens, UniProt P21917)"
  CATEGORY: "NOT MET"
- SMILES INPUT: "Cc1cccc(NC(=O)CN2CCC(c3ccccc3)CC2)c1"
  TARGET UNDER TEST: "D(4) dopamine receptor (Homo sapiens, UniProt P21917)"
  CATEGORY: "MET"

Please let me know if `Cc1cccc(NC(=O)CN2CCN(c3cccc4ccccc34)CC2)c1` shows IC50 below 3000 nM.
NOT MET

hey, is IC50 for `Cc1cccc(NC(=O)CN2CCN(c3ccccn3)CC2)c1` lower than 3000 nM or not?
MET

Lab log: compare recorded IC50 with 3000 nM; is it strictly lower for `CCc1cccc(NC(=O)CN2CCC(c3ccccn3)CC2)c1` ?
MET
